Tested on: HCT-116 cells
Test: CCK-8 cell viability assay, HCT-116
Type: cell-based
Settings: Homo sapiens, Table 1, 72 h, mean (n = 3)
Property measured: IC50 (µM)
Entry rule: numbers only, all in µM.

COc1ncc(-c2ccc3c(c2)sc2c(NCCN(C)C)ncnc23)cc1NS(=O)(=O)c1ccc(F)cc1F [11h]    0.56
COc1ncc(-c2ccc3c(c2)sc2c(NCCO)ncnc23)cc1NS(=O)(=O)c1ccc(F)cc1F [11c]    0.59
COc1ncc(-c2ccc3c(c2)sc2c(NCCN)ncnc23)cc1NS(=O)(=O)c1ccc(F)cc1F [11f]    0.77

As a next step, examine the molecule that follows.
Exercise: Requested read-out IC50, target or system HCT-116 cells, entry COc1ncc(-c2ccc3nccc(-c4ccnnc4)c3c2)cc1NS(=O)(=O)c1ccc(F)cc1F [Omipalisib, reference compound]
Key: 0.02

====

The reader will find reported inhibition at 0.001 µM values listed item by item below.
Target: PI3Kα (Homo sapiens)
Construct: purchased SignalChem P27-122DH
Sequence (P42336 whole entry): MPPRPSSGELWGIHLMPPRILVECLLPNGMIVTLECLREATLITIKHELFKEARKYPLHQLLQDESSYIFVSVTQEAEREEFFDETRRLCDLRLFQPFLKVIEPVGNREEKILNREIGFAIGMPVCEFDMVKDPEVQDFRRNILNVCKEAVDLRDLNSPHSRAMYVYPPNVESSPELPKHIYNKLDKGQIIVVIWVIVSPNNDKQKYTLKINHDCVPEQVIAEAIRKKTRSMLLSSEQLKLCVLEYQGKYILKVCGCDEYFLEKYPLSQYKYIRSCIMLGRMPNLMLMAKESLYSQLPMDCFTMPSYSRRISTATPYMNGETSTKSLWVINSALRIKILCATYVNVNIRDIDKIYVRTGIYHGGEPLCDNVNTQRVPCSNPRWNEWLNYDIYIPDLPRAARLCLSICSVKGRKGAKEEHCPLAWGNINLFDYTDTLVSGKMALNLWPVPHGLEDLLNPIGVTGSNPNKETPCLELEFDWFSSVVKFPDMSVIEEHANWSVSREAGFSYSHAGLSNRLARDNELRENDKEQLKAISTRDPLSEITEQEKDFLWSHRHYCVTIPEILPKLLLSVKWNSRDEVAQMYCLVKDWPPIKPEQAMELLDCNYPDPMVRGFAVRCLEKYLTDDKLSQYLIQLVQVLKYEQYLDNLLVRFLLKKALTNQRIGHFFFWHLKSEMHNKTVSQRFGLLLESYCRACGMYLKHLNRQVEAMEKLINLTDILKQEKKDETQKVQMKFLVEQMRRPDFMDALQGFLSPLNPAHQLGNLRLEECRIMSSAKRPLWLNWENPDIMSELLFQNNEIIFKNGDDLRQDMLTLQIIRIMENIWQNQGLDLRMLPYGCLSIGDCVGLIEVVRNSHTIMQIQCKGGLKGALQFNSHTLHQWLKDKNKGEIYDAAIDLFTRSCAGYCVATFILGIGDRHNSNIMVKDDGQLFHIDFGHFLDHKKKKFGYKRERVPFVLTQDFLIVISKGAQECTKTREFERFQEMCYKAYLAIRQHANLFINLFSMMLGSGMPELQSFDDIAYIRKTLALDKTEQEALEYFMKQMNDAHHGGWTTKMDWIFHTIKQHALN
Sequence (P27986 whole entry partner): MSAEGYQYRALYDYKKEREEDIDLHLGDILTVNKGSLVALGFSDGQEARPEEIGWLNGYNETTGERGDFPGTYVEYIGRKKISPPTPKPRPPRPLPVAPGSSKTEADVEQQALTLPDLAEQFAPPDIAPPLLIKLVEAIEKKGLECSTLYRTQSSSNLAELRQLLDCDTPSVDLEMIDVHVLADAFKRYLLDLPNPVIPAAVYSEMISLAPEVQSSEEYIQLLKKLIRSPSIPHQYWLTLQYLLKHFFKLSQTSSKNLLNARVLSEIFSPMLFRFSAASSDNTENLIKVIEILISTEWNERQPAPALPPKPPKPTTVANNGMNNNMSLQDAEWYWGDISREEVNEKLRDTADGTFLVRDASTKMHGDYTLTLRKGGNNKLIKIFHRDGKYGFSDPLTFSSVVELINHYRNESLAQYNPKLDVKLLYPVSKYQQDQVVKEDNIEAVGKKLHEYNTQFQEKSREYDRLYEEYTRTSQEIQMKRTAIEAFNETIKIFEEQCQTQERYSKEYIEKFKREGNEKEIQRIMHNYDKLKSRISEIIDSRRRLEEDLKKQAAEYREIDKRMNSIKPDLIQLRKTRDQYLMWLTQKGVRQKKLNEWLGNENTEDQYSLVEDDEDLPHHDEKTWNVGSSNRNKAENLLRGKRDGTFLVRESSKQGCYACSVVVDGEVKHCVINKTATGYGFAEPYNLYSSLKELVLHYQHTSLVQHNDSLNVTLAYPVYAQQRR
Experiment: ADP-Glo kinase assay, PI3Kα enzyme inhibition
Assay type: biochemical
Details: Table 3; at 1 nM
Answer with the value and then the unit.

Example entries and their recorded answers appear below.
COCCNC(=O)c1cnc(-c2ccnc3ccc(-c4cnc(OC)c(NS(=O)(=O)c5ccc(F)cc5F)c4)cc23)o1 [22e]    69%
CNC(=O)c1cnc(-c2ccnc3ccc(-c4cnc(OC)c(NS(=O)(=O)c5ccc(F)cc5F)c4)cc23)o1 [22b]    74%
COc1ncc(-c2ccc3nccc(-c4ncc(C(=O)NCCc5ccc(Cl)cc5)o4)c3c2)cc1NS(=O)(=O)c1ccc(F)cc1F [22l]    15%

Let us move to another entry and its inhibition at 0.001 µM.
Exercise: Requested read-out: inhibition at 0.001 µM. Entry: COc1ncc(-c2ccc3nccc(-c4ncc(C(=O)NC5CC5)o4)c3c2)cc1NS(=O)(=O)c1ccc(F)cc1F [22d]
Key: 82%

====

Molecular target: PI3Kα (Homo sapiens)
Construct: purchased SignalChem P27-122DH
Test: ADP-Glo kinase assay, PI3Kα enzyme inhibition
Assay type: biochemical
Conditions: Table 3; at 1 nM
Property measured: inhibition at 0.001 µM

# example entries with known answers
COc1ncc(-c2ccc3nccc(-c4ncc(C(=O)NCC5CCCCC5)o4)c3c2)cc1NS(=O)(=O)c1ccc(F)cc1F [22i]    33%
CCOC(=O)c1cnc(-c2ccnc3ccc(-c4cnc(OC)c(NS(=O)(=O)c5ccc(F)cc5F)c4)cc23)o1 [22a]    20%
COc1ncc(-c2ccc3nccc(-c4ncc(C(=O)NCC5CC5)o4)c3c2)cc1NS(=O)(=O)c1ccc(F)cc1F [22h]    78%

// next entry
Exercise: Give its inhibition at 0.001 µM value. Item: CCCCNC(=O)c1cnc(-c2ccnc3ccc(-c4cnc(OC)c(NS(=O)(=O)c5ccc(F)cc5F)c4)cc23)o1 [22g]
Key: 55%

====

Target: PI3Kα (Homo sapiens)
Construct: purchased SignalChem P27-122DH
Assay: ADP-Glo kinase assay, PI3Kα enzyme inhibition
Type: biochemical
Details: Table 3; at 1 nM
Form field: inhibition at 0.001 µM (one value per entry).
The response must be a number in % with no trailing unit.

COc1ncc(-c2ccc3nccc(-c4ncc(C(=O)NC(C)C)o4)c3c2)cc1NS(=O)(=O)c1ccc(F)cc1F [22c]    82
COCCCNC(=O)c1cnc(-c2ccnc3ccc(-c4cnc(OC)c(NS(=O)(=O)c5ccc(F)cc5F)c4)cc23)o1 [22f]    78
COc1ccc(CCNC(=O)c2cnc(-c3ccnc4ccc(-c5cnc(OC)c(NS(=O)(=O)c6ccc(F)cc6F)c5)cc34)o2)cc1 [22k]    22

As a next step, examine the molecule that follows.
Exercise: Sample COc1ncc(-c2ccc3nccc(-c4ncc(C(=O)NC5CCCCC5)o4)c3c2)cc1NS(=O)(=O)c1ccc(F)cc1F [22j] — what was its inhibition at 0.001 µM?
Key: 18

Hello, the source for this data is paper PMC10054477, in case you need it.
